These measurements were taken from PubChem BioAssay (EPA / NIEHS).

Target system: Nuclear receptor subfamily 1 group I member 2 (Homo sapiens) (UniProt O75469)
Sequence (O75469 whole entry, looked up): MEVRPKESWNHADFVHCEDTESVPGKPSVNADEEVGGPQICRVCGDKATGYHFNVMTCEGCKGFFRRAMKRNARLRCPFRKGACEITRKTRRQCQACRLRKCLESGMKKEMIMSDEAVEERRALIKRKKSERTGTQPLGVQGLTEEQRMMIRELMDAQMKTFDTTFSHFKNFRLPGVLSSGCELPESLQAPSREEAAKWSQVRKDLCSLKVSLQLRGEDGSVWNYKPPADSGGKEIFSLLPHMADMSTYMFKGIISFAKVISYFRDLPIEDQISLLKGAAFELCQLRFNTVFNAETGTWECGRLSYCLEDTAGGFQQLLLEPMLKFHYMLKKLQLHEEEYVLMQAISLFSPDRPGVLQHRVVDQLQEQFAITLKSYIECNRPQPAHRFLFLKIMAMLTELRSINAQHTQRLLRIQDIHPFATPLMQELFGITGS
Assay text: ATG_PXR_TRANS: Attagene TRANS-FACTORIAL HepG2 Assay for human Pregnane X Receptor (PXR) (AID 2283008)
Records with an inconclusive call do not appear. Calls of active or inactive are those of the source. The calls were made as follows: active = hit-call score of the fitted dose curve at least 0.9, where 1 is the maximum; inconclusive = response in the unintended direction; inactive = score below 0.9.
Respond only with the outcome that fits, drawn from y for active, n for inactive

Some solved entries appear below for comparison.
Compound: Cc1ccccc1C(OCCN(C)C)c1ccccc1 (centres undefined)
Target system: Nuclear receptor subfamily 1 group I member 2 (Homo sapiens) (UniProt O75469)
Label class: n
--
Compound: CC(=O)CC(C)C
Target system: Nuclear receptor subfamily 1 group I member 2 (Homo sapiens) (UniProt O75469)
Label class: n
--
Compound: CCCCCCCCC1CCC(=O)O1 (centres undefined)
Target system: Nuclear receptor subfamily 1 group I member 2 (Homo sapiens) (UniProt O75469)
Label class: n
--
Compound: CCCCCCCCCCCC
Target system: Nuclear receptor subfamily 1 group I member 2 (Homo sapiens) (UniProt O75469)
Label class: n

Record request — test call for "CN(C)CCOC(c1ccccc1)c1ccccc1"
n

Record request — test call for "O=C(Nc1ccc(Cl)c(Cl)c1)c1cc(Cl)cc(Cl)c1O"
y

Record request — test call for "Oc1cc2ccccc2cc1O"
n

Record request — test call for "CCC(=O)O"
n

Record request — test call for "NC(=NCCCCCCN=C(N)/N=C(\N)Nc1ccc(Cl)cc1)/N=C(\N)Nc1ccc(Cl)cc1"
n

Record request — test call for CCCCCC(C)OC(=O)COc1ccc(Cl)c2cccnc12 (centres undefined)
n

Record request — test call for "O=C1OC(=O)c2cc(-c3ccc4c(c3)C(=O)OC4=O)ccc21"
n

* * *

Read-out: cysteine-aspartic acid protease (CASP8), CASP8 (gene 841)
Assay text: LTEA_HepaRG_CASP8: Life Technologies and Expression Analysis (LTEA) Assay for cysteine-aspartic acid protease (CASP8) using HepaRG (AID 2283480)
Assay setup: mRNA level, 48 h; actives raise or lower the signal
The source made the active and inactive calls. How the source made its calls: active means hit-call score of the fitted dose curve at least 0.9, where 1 is the maximum; inactive means score below 0.9.
Respond only with the outcome that fits, drawn from label 1 = active, label 0 = inactive

Compound: CCCCC(CC)C(=O)O (configuration not stated)
Label class: label 0

Compound: CCCCC=O
Label class: label 0

Compound: O=C(CCCN1CCC(O)(c2ccc(Cl)cc2)CC1)c1ccc(F)cc1
Label class: label 0

Compound: CCCCCCCCCCCCCCC
Label class: label 0

Compound: CCC(C)c1ccccc1O (configuration not stated)
Label class: label 0

Compound: CC(=O)Nc1ccc(O)cc1
Label class: label 0

Record request — test call for "N=C(N)c1ccc(OCCCCCOc2ccc(C(=N)N)cc2)cc1"
label 1

* * *

Read-out: Matrix Metallopeptidase 9 (MMP9), MMP9 (gene 4318)
Assay text: BSK_BE3C_MMP9: BioMAP Diversity Plus: BE3C Assay for Matrix Metallopeptidase 9 (MMP9) Biomarker Activity (AID 2284283)
Assay setup: primary human bronchial epithelial cells
The source made the active and inactive calls. The calls were made as follows: active = hit-call score of the fitted dose curve at least 0.9, where 1 is the maximum; inactive = score below 0.9.
Respond only with the outcome that fits, drawn from 1 (yes) = active, 0 (no) = inactive

Some solved entries appear below for comparison.
Structure smiles string: C=CC(=O)OCCC(F)(F)C(F)(F)C(F)(F)C(F)(F)C(F)(F)C(F)(F)C(F)(F)C(F)(F)F
Label class: 0 (no)
//
Structure smiles string: O=C(O)CCC(F)(F)C(F)(F)C(F)(F)C(F)(F)C(F)(F)C(F)(F)F
Label class: 0 (no)
//
Structure smiles string: O=P(O)(O)CCC(F)(F)C(F)(F)C(F)(F)C(F)(F)C(F)(F)C(F)(F)F
Label class: 0 (no)
//
Structure smiles string: CN(CCO)S(=O)(=O)C(F)(F)C(F)(F)C(F)(F)C(F)(F)C(F)(F)C(F)(F)C(F)(F)C(F)(F)F
Label class: 0 (no)
//
Structure smiles string: Oc1ccc(Cc2ccccc2O)cc1
Label class: 0 (no)

Record request — test call for "O=C(O)CCC(F)(F)C(F)(F)C(F)(F)C(F)(F)C(F)(F)F"
0 (no)

Record request — test call for "O=C1NS(=O)(=O)c2ccccc21"
0 (no)

Record request — test call for "CN(Cc1cnc2nc(N)nc(N)c2n1)c1ccc(C(=O)N[C@@H](CCC(=O)O)C(=O)O)cc1"
0 (no)

Record request — test call for "O=C(CC(=O)C(F)(F)C(F)(F)C(F)(F)F)c1cccs1"
1 (yes)
